# test_protocol: folding stability dG unfold (combined trypsin and chymotrypsin); higher = more stable
Below is a list of entries, each paired with its recorded folding stability dG unfold value.
property_measured: folding stability dG unfold

>>> print(df.to_string())
                              residue_codes   measured_result
0  SAGKKVKINIKLPEGAKVTKIEFDKKTKTIKITIYDKNGKKVLEMTFVYKDKNGKYKIVKKITVYLKKPSAG [r5_434_TrROS_Hall]     4.09 kcal/mol
1  NKAQKLARSLARKFMRPHGYPMEIDPENNSIRFPNGEPIMEIPIDIVLLDDDGKIVEEINIPIRIRMRPPKS [r1_318_TrROS]    0.762 kcal/mol
2  SAGGSAGGSAGAEIKIKKVEKKDSKLKLILPDGRIYEVKKDKKKSNSIKKIKIKKLPPLKSAGGSAGGSAGG [r17_173_JUSTAS]  -0.0549 kcal/mol
